- System: OVCAR-4 ovarian
- Protocol Description: NCI-60 one-dose screen, 48 h (100 = growth as untreated, 0 = no growth, -100 = all killed)
- Experimental Conditions: 10 µM unless noted
Compounds without any hit were thinned out: in the full panel of roughly 83,000, 20% have a hit.
Measured growth by item
# unit: % | format: bare number

Worked set:
Compound	Assayed Target	Reported Property	Recorded Number
O=C1NC(=O)C(=Cc2cn(Cc3ccccn3)c3ccccc23)C(=O)N1	OVCAR-4 ovarian	growth	93.4
NC(=O)C1(N2CCCCC2)CCN(CCCC(=O)c2ccc(F)cc2)CC1	OVCAR-4 ovarian	growth	59.8
COc1ccncc1C#Cc1cncc(C(=O)Nc2ccc(CN3CCN(C)CC3)c(C(F)(F)F)c2)c1	OVCAR-4 ovarian	growth	30.7

Observed growth on OVCAR-4 ovarian, entry CCCCCCCCOc1ccc(/C=N/Nc2cc(C)nc3ccc(Cl)cc23)cc1 , equals -69.7

Entry O=C(Nc1ccc2ncnc(Nc3ccc(Oc4cccc(F)c4)c(Cl)c3)c2c1)c1ccc(CN2CCOCC2)cc1 , tested on OVCAR-4 ovarian, has a reported growth of 20.3

Entry N#CSCC1CC(O)(c2ccccc2)C(c2ccccc2)C(c2ccc(F)cc2)O1 (configuration not stated) , OVCAR-4 ovarian data, growth value: 15.8

---

- Tested on: SK-OV-3 ovarian
- Protocol Description: NCI-60 one-dose screen, 48 h (100 = growth as untreated, 0 = no growth, -100 = all killed)
- Experimental Conditions: 10 µM unless noted
Compounds without any hit were thinned out: in the full panel of roughly 83,000, 20% have a hit.
API: label(entry) gives MET if the entry's growth is strictly smaller than 90%; on equality or larger values it gives NOT MET.

The following compounds have reported results that may help.
Compound	Assayed Target	Class Assignment
CN(C)CCCn1c2c(c3ccc(-c4ccn[nH]4)cc3c1=O)C(=O)c1ccccc1-2	SK-OV-3 ovarian	MET
COc1ccc(-c2nc(N/N=C/c3ccco3)nc(N3CCOCC3)c2C#N)cc1	SK-OV-3 ovarian	MET
c1ccc(C2CC(c3cccc(Nc4ccncc4)c3)=NN2c2ccccc2)cc1 (stereo not given)	SK-OV-3 ovarian	MET
CCOC(=O)c1c(C)nc2c(c1N)C(=O)C(=O)N2Cc1ccc(C(F)(F)F)cc1	SK-OV-3 ovarian	MET
ClCC1(Cn2cnc3c(Cl)nc(Cl)nc32)COC1	SK-OV-3 ovarian	NOT MET

With those in mind, consider the next compound.
INPUT: Please determine if CC(C)NC(=O)N1C(=O)CCC1NNC(=O)c1ccc([N+](=O)[O-])cc1 (stereo not given) is below 90% in terms of growth.
OUTPUT: NOT MET

---

- System: RXF 393 renal
- Protocol Description: NCI-60 one-dose screen, 48 h (100 = growth as untreated, 0 = no growth, -100 = all killed)
- Experimental Conditions: 10 µM unless noted
The panel holds about 83,000 compounds, 20% with a hit somewhere; the sample as a whole holds those more often.
Reported Property: growth (%)
Your answer is read as %, so omit the unit and give the number.

Compound	Recorded Number
CC(=O)N1c2ccccc2NC2=C(C(=O)N(C)C2(C)C)C1C (centres undefined)	27.8
CN(C)C(C(N)=O)c1ccc(Cl)cc1 (centres undefined)	118
N#Cc1c(NC(=O)c2cccc(Br)c2)sc2c1CCCC2	96.8
CC(=O)[C@@H]1CC[C@]2(C(N)=O)CC[C@]3(C)[C@H](CC[C@@H]4[C@@]5(C)CCC(=O)C(C)(C)[C@@H]5CC[C@]43C)[C@@H]12	109

compound CN1CCN(CC#CCNC(=O)[C@]23CCC(C)(C)C[C@H]2C2=CC[C@@H]4[C@@]5(C)Cc6c([nH]c7ccccc67)C(C)(C)[C@@H]5CC[C@@]4(C)[C@]2(C)CC3)CC1 , growth observed: 66.5

For record O=C(Nc1cccc(Cl)c1)c1cc(Cl)ccc1O the listed growth is -12.3

So for CS(=O)(=O)OCCN(CCOS(C)(=O)=O)c1ccc(/C=N/Nc2ccc([N+](=O)[O-])cc2[N+](=O)[O-])cc1 , the logged growth turned out to be 102

Input C#CC(=O)Nc1cccc(Nc2nc3c(c(NCc4ccccc4)n2)CCCC3)c1 . Output growth: -99.5

GET /value?item= CN(C)CCCn1c2c(c3ccc(-c4ccn[nH]4)cc3c1=O)C(=O)c1ccccc1-2 &field=growth returns 68.3
